Values compiled from PubChem BioAssay (Tox21).

Assay: qHTS assay to test for compound auto fluorescence at 460 nm (blue) in HEK293 cell free culture (AID 720681)
Conditions: cell-free medium, autofluorescence 405/460 nm (blue); series mostly up to 91.3 µM
Active and inactive are the calls of the source. Calls come from the whole dose curve; as a rule, active = well fitted curve in the direction sought with a large enough effect in the repeat runs; inconclusive = weak or mixed curves; inactive = flat fitted curve, though single readings scatter.
measurement_type: fluorescence, % of fluorescent control

Study these solved cases before continuing.
compound="CCNC(=O)C1CC(C)CCC1C(C)C (stereo not drawn)" result_value=inactive
compound="CC(CN)CC(C)(C)CCN (stereo not drawn)" result_value=inactive
compound=O=C(O)Cc1ccc(Cl)cc1Cl result_value=inactive
compound=CN(C)c1ccc(C=O)cc1 result_value=inactive
compound=CCCCCCCCCCl result_value=inactive
compound=CCCCCCCCCCCCCC result_value=inactive
compound=CCCCN result_value=inactive
compound=O=C1CCCC(=O)O1 result_value=inactive
compound=CCCCOC(=O)c1ccccc1 result_value=inactive
compound=O=C(/N=N/C(=O)OCc1ccccc1)OCc1ccccc1 result_value=inactive

Now look at this one.
### Prompt Provide measured fluorescence, % of fluorescent control value, entry: CCc1ccc(C=O)cc1
### Response inactive
